Target: T1, mouse IL-2Rβ (mouse) (UniProt P16297)
T1 sequence (looked up): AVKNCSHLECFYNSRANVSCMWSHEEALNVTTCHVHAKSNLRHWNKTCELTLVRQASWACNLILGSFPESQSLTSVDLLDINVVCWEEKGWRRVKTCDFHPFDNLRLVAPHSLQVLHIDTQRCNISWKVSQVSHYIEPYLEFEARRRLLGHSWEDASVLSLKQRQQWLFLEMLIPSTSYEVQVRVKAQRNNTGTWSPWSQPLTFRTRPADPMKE
Assay: P.E. binding ELISA on coated protein
Recorded P.E. binding ELISA OD, one value per entry.
Report as a plain number; the unit OD450 nm is understood.

Check out these entries, answers already filled in.
Binder	Measurement Name	Measurement
FJ1427 P035MP06G01 (VHH) VHH: EVQLVESGGGLVQAGDSLRLSCVVSGRGFSTYTMGWFRQAPGKEREFVAAITWSTGRTSYADSVKGRFTISRENAENTVYLQMNSLELEDTAVYYCATDQVLWTTRPRDMRYWGQGTQVTVSF	P.E. binding ELISA OD	0.049
FJ1427_P035MP06B02 (VHH) VHH: QVQLVESGGGLVQAGGSLRLSCVVSGDVFVRYTMAWFRQAPGKEREFVAAVTDSGRTTEYVDSVKGRFTVSRDNAKNTVYLQMNNLKPEDTAVYYCAANTDYFQIRSVDNNAWGQGTQVTVSS	P.E. binding ELISA OD	0.048
FJ1427_P035MP03B09 (VHH) VHH: QVQLVESGGGLVQAGGSLRLSCVVSGDVFVRYTMAWFRQAPGKEREFVTSITDSGRTTEYVDSVKGRFTVSRDNAKNTVYLQMNNLKPEDTAVYYCAANTDYFRIRSLDANTWGQGTQVTVSS	P.E. binding ELISA OD	0.046

Consider the record given below.
Entry FJ1427 P035MP03B11 (VHH) VHH: EVQLVESGGGLVQAGGSLRLACALSGDVFVRYTMAWFRQAPGKEREFVASVTDSGRTTDYVASVQGRFTVSRDNNKNTVYLQMNSLKPEDTAVYYCAANTDYFQIRSLDRNTWGQGTQVTVSS — recorded P.E. binding ELISA OD = 0.052
